- TEST: in vitro
- RUN CONDITIONS: rhesus monkey
REPORTED METRIC: CC50 at 3 days (µM)
Hi! Could you send only the number? It should be in µM, unit omitted.

SMILES TEXT: Cc1cc2c(C(C)C)c(O)c(O)c(C=O)c2c(O)c1-c1c(C)cc2c(C(C)C)c(O)c(O)c(C=O)c2c1O
CC50 at 3 days, µM: 14.5

SMILES TEXT: COc1cc(/C=C/C(=O)CC(=O)/C=C/c2ccc(O)c(OC)c2)ccc1O
CC50 at 3 days, µM: 59.4

### Prompt What does the data say about its CC50 at 3 days? Entry: C[C@@H]1CC[C@@]2(OC1)O[C@H]1[C@@H](O)[C@H]3[C@@H]4CC[C@H]5C[C@@H](O[C@@H]6O[C@H](CO)[C@H](O[C@@H]7O[C@H](CO)[C@@H](O)[C@H](O[C@@H]8OC[C@@H](O)[C@H](O)[C@H]8O)[C@H]7O[C@@H]7O[C@H](CO)[C@H](O)[C@H](O[C@@H]8O[C@H](CO)[C@@H](O)[C@H](O)[C@H]8O)[C@H]7O)[C@H](O)[C@H]6O)[C@H](O)C[C@]5(C)[C@H]4CC[C@]3(C)[C@H]1[C@@H]2C
### Response 59

### Prompt Form field: reported CC50 at 3 days of C[C@H]1[C@H]2CC[C@H]3[C@@H]4CC=C5C[C@@H](N(C)C)CC[C@]5(C)[C@H]4CC[C@]23CN1C
### Response 303
